# systemTested: JAK1 (Homo sapiens, UniProt P23458)
# Sequence (P23458 whole entry): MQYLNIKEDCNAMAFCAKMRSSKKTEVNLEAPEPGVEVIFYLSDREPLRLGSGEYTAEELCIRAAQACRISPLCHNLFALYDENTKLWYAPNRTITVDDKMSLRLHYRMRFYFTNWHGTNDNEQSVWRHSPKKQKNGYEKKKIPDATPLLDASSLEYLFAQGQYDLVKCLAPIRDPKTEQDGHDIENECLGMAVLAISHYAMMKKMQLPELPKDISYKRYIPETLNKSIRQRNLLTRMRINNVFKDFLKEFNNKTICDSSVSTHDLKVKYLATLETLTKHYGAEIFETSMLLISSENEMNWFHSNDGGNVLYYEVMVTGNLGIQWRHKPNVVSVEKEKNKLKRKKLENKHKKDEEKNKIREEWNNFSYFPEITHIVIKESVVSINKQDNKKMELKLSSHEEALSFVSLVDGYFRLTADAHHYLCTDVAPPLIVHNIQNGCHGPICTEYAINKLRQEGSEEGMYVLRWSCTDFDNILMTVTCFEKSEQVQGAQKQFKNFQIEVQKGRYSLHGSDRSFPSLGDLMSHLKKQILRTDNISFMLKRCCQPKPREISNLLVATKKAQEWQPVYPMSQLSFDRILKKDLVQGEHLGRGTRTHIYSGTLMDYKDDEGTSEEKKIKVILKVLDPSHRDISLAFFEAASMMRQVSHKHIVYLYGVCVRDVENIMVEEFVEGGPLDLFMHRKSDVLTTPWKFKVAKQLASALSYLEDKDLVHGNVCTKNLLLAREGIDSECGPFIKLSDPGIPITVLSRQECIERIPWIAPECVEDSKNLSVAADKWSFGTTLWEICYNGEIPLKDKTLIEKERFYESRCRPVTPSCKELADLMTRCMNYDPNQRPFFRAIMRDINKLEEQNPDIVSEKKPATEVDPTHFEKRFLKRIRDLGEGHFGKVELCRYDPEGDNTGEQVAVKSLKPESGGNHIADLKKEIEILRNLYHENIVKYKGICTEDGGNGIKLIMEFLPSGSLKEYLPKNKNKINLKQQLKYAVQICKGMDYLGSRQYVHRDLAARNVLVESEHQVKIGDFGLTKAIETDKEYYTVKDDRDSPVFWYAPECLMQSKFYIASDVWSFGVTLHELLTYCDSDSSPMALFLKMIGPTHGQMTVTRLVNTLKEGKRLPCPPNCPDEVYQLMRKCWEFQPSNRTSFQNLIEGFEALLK
# methodDescription: JAK kinase inhibition assay (EZ Reader, peptide substrate phosphorylation) - JAK1
# Type: biochemical
# measurementContext: JAK1 kinase 20 nM; 8 concentration points, max 10 μM
// values below are reported IC50

Illustrative cases are given below, each with its answer.
{"compound": "Cn1cc(Nc2nccc(-c3ccc(C(=O)NC4CC4(F)F)nc3)n2)cn1 (stereo not drawn)", "IC50": "1 to 10 µM"}
{"compound": "Cn1cc(Nc2nccc(-c3ccc(NC(=O)C4CC4)c4cc[nH]c34)n2)cn1", "IC50": "≥ 10 µM"}
{"compound": "Cn1cc(Nc2nccc(-n3ccc4c(NC(=O)CC(F)(F)F)cccc43)n2)cn1", "IC50": "< 0.1 µM"}
{"compound": "Cn1cc(Nc2nccc(-c3ccc(NC(=O)C4CC4(F)F)nc3)n2)cn1 (stereo not drawn)", "IC50": "< 0.1 µM"}
{"compound": "Cn1cc(Nc2nccc(-c3cnc(NC(=O)CC#N)nc3)n2)cn1", "IC50": "1 to 10 µM"}
{"compound": "Cc1cc(-c2ccnc(Nc3cnn(C)c3)n2)ccc1NC(=O)CC(F)(F)F", "IC50": "0.1 to 1 µM"}
{"compound": "Cn1cc(Nc2nccc(-c3ccc(NS(=O)(=O)CCC(F)(F)F)nc3)n2)cn1", "IC50": "1 to 10 µM"}
{"compound": "COCCC(=O)Nc1ccc(-c2ccnc(Nc3cnn(C)c3)n2)cn1", "IC50": "0.1 to 1 µM"}
{"compound": "CN1CCN(c2ccc(-c3ccnc(Nc4cnn(C)c4)n3)cc2)CC1", "IC50": "1 to 10 µM"}
{"compound": "Cn1cc(Nc2nccc(-c3cnc(NC(=O)C4CC4(F)F)nc3)n2)cn1 (stereo not drawn)", "IC50": "< 0.1 µM"}

Param item = Cn1cc(Nc2nccc(-n3ccc4c(NC(=O)CC5CC5)cccc43)n2)cn1 ; retrieve measured IC50. 0.1 to 1 µM

Param item = Cn1cc(Nc2nccc(-c3ccc(C(=O)NC4CC4(F)F)cc3)n2)cn1 (stereo not drawn) ; retrieve measured IC50. 0.1 to 1 µM

Param item = Cn1cc(Nc2nccc(-c3ccc(NC(=O)CC(F)(F)F)nc3)n2)cn1 ; retrieve measured IC50. < 0.1 µM

Param item = Cn1cc(Nc2nccc(-c3ccc(CN4CCOCC4)cc3)n2)cn1 ; retrieve measured IC50. 1 to 10 µM

Param item = COCCC(=O)Nc1ccc(-c2ccnc(Nc3cnn(C)c3)n2)cc1 ; retrieve measured IC50. 0.1 to 1 µM

Param item = Cn1cc(Nc2nccc(-c3cnc(NC(=O)C4CC4)c(F)c3)n2)cn1 ; retrieve measured IC50. 1 to 10 µM

Param item = Cn1cc(Nc2nccc(-c3cnc(NC(=O)C4CC4)cn3)n2)cn1 ; retrieve measured IC50. 1 to 10 µM

---

# systemTested: UniProt P52333
# Sequence (P52333 whole entry): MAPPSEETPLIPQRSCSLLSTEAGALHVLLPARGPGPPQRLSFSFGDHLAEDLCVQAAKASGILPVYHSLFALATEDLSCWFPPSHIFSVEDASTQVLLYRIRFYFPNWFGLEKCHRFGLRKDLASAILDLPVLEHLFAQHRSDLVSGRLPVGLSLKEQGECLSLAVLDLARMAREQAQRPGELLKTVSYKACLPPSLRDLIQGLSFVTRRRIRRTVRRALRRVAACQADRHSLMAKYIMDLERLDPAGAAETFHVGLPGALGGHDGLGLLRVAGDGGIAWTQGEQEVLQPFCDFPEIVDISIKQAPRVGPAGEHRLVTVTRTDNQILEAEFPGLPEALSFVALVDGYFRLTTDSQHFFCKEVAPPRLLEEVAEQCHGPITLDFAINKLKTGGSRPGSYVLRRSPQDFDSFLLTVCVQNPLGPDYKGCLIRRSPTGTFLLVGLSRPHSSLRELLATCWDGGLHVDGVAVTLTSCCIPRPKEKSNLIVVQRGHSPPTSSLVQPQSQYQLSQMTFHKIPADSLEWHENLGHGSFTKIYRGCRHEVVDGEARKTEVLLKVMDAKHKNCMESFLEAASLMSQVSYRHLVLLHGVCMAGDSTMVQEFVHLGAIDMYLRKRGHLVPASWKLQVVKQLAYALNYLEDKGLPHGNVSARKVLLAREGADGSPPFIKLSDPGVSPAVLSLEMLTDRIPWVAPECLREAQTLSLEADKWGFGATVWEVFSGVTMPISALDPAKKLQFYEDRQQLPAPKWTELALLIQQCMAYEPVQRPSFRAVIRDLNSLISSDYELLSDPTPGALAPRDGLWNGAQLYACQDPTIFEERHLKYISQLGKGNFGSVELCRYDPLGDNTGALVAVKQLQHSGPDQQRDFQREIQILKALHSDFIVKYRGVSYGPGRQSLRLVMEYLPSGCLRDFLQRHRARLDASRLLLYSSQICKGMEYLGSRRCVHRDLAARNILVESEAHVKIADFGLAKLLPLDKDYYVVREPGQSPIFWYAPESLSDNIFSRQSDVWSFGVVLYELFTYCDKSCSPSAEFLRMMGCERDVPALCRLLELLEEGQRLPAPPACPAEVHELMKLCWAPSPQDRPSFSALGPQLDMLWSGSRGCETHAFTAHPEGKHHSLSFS
# methodDescription: JAK kinase inhibition assay (EZ Reader, peptide substrate phosphorylation) - JAK3
# Type: biochemical
# measurementContext: JAK3 kinase 1 nM; 8 concentration points, max 10 μM
// values below are reported IC50

{"compound": "Cn1cc(Nc2nccc(-c3ccc(NC(=O)CC(F)(F)F)cc3)n2)cn1 [TDM-180754]", "systemTested": "UniProt P52333", "IC50": "1 to 10 µM"}
{"compound": "Cn1cc(Nc2nccc(-c3ccc(CNCC(F)(F)F)cc3)n2)cn1 [TDM-180760]", "systemTested": "UniProt P52333", "IC50": "≥ 10 µM"}
{"compound": "Cn1cc(Nc2nccc(-c3ccc(NC(=O)C4CCC4)cc3)n2)cn1 [TDM-180813]", "systemTested": "UniProt P52333", "IC50": "≥ 10 µM"}
{"compound": "Cn1cc(Nc2nccc(-c3ccc(C(=O)N4CCS(=O)(=O)CC4)nc3)n2)cn1 [TDM-180764]", "systemTested": "UniProt P52333", "IC50": "≥ 10 µM"}

Requested read-out IC50, target or system UniProt P52333, entry Cn1cc(Nc2nccc(-c3ccc(NC(=O)C4(F)CC4)nc3)n2)cn1 [TDM-180821] ≥ 10 µM

Requested read-out IC50, target or system UniProt P52333, entry Cn1cc(Nc2nccc(-c3ccc(NC(=O)CC(F)(F)F)nc3)n2)cn1 [TDM-180830] 0.1 to 1 µM

Requested read-out IC50, target or system UniProt P52333, entry Cn1cc(Nc2nccc(-c3ccc(NC(=O)C4CC4(F)F)cc3)n2)cn1 (stereo not drawn) [TDM-180757] 0.1 to 1 µM

Requested read-out IC50, target or system UniProt P52333, entry CCS(=O)(=O)Nc1ccc(-c2ccnc(Nc3cnn(C)c3)n2)cc1 [TDM-180768] 1 to 10 µM

Requested read-out IC50, target or system UniProt P52333, entry Cn1cc(Nc2nccc(-c3ccc(NC(=O)C(F)F)cc3)n2)cn1 [TDM-180805] 1 to 10 µM

---

# systemTested: Tyk2 (Homo sapiens)
# Sequence (P29597 whole entry): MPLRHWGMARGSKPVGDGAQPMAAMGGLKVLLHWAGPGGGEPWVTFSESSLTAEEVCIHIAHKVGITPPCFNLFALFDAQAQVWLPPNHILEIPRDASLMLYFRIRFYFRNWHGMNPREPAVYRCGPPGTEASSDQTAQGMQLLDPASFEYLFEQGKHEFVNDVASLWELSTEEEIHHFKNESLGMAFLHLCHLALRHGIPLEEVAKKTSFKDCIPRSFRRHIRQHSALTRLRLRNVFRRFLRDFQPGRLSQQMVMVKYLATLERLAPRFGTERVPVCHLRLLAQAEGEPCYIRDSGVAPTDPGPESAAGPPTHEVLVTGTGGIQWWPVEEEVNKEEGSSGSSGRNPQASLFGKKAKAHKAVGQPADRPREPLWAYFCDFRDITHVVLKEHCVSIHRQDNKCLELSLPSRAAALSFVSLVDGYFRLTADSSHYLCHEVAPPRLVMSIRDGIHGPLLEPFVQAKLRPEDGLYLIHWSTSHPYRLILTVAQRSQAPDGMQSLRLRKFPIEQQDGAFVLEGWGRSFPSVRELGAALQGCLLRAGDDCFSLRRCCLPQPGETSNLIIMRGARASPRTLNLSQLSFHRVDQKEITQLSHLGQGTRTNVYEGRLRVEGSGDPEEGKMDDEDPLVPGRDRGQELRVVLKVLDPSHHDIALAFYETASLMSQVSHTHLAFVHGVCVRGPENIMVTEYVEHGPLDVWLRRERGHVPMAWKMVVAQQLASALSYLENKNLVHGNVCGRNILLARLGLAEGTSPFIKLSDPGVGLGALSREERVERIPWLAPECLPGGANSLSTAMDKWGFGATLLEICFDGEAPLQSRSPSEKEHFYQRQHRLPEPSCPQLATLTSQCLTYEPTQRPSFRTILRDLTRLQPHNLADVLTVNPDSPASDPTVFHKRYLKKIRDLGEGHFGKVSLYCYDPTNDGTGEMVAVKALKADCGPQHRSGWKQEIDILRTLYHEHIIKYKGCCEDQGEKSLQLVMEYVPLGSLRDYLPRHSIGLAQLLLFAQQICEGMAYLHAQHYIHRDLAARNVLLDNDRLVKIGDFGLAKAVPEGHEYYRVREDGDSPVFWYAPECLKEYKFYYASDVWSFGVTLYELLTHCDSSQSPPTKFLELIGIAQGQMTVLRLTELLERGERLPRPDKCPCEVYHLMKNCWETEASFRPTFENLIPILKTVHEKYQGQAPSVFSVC
# methodDescription: JAK kinase inhibition assay (EZ Reader, peptide substrate phosphorylation) - Tyk2
# Assay type: biochemical
# measurementContext: Tyk2 kinase 1 nM; 8 concentration points, max 10 μM
observationType: IC50

Param item = Cn1cc(Nc2nccc(-c3cnc(NC(=O)C4CC4)c(F)c3)n2)cn1 ; retrieve measured IC50. 1 to 10 µM

Param item = Cn1cc(Nc2nccc(-c3ccc(C(=O)NC4CC4)nc3)n2)cn1 ; retrieve measured IC50. 1 to 10 µM

Param item = Cn1cc(Nc2nccc(-c3ccc(NC(=O)CC(F)(F)F)c4[nH]ncc34)n2)cn1 ; retrieve measured IC50. 0.1 to 1 µM

Param item = Cn1cc(Nc2nccc(-c3ccc(NC(=O)C4CCC4)nc3)n2)cn1 ; retrieve measured IC50. 1 to 10 µM

Param item = Cn1cc(Nc2nccc(-c3cnc(NC(=O)CC(F)(F)F)nc3)n2)cn1 ; retrieve measured IC50. 1 to 10 µM

---

// values below are reported IC50
# systemTested: JAK1 (Homo sapiens, UniProt P23458)
# methodDescription: JAK kinase inhibition assay (EZ Reader, peptide substrate phosphorylation) - JAK1
# Assay type: biochemical
# measurementContext: JAK1 kinase 20 nM; 8 concentration points, max 10 μM

Illustrative cases are given below, each with its answer.
{"compound": "Cc1cc(-c2ccnc(Nc3cnn(C)c3)n2)cnc1NC(=O)C1CC1(F)F (stereo not drawn)", "testValue": "0.1 to 1 µM"}
{"compound": "Cc1cc(-c2ccnc(Nc3cnn(C)c3)n2)cnc1NC(=O)CC#N", "testValue": "1 to 10 µM"}

Param item = Cn1cc(Nc2nccc(-c3cnc(NC(=O)CC#N)c(F)c3)n2)cn1 ; retrieve measured IC50. 0.1 to 1 µM

Param item = Cn1cc(Nc2nccc(-c3ccc(NC(=O)CC(F)(F)F)c4cc[nH]c34)n2)cn1 ; retrieve measured IC50. 0.1 to 1 µM

---

# systemTested: UniProtKB P29597
# methodDescription: JAK kinase inhibition assay (EZ Reader, peptide substrate phosphorylation) - Tyk2
# Assay type: biochemical
# measurementContext: Tyk2 kinase 1 nM; 8 concentration points, max 10 μM
// values below are reported IC50

Illustrative cases are given below, each with its answer.
{"compound": "Cn1cc(Nc2nccc(-c3ccc(NC(=O)CO)nc3)n2)cn1 [TDM-180806]", "observationType": "IC50", "testValue": "1 to 10 µM"}
{"compound": "Cc1cc(-c2ccnc(Nc3cnn(C)c3)n2)ccc1NC(=O)CC(F)(F)F [TDM-180783]", "observationType": "IC50", "testValue": "1 to 10 µM"}
{"compound": "Cn1cc(Nc2nccc(-n3ccc4c(NC(=O)C5CC5(F)F)cccc43)n2)cn1 (centres unmarked) [TDM-180885]", "observationType": "IC50", "testValue": "0.1 to 1 µM"}

Param item = Cc1cc(-c2ccnc(Nc3cnn(C)c3)n2)ccc1C(=O)NCC#N [TDM-180779] ; retrieve measured IC50. 1 to 10 µM

Param item = Cn1cc(Nc2nccc(-c3ccc(NC(=O)C4CC4(F)F)c4[nH]ncc34)n2)cn1 (centres unmarked) [TDM-180899] ; retrieve measured IC50. 0.1 to 1 µM

Param item = Cn1cc(Nc2nccc(-c3ccc(NC(=O)[C@H]4CC4(F)F)cc3)n2)cn1 [TDM-180936] ; retrieve measured IC50. 0.1 to 1 µM

Param item = Cn1cc(Nc2nccc(-c3ccc(NC(=O)C4CC4(F)F)nc3)n2)cn1 (centres unmarked) [TDM-180822] ; retrieve measured IC50. < 0.1 µM

Param item = Cn1cc(Nc2nccc(-c3cnc(NC(=O)C4CC4(F)F)nc3)n2)cn1 (centres unmarked) [TDM-180886] ; retrieve measured IC50. 0.1 to 1 µM

Param item = Cn1cc(Nc2nccc(-c3ccc(NS(=O)(=O)CCCF)nc3)n2)cn1 [TDM-180903] ; retrieve measured IC50. 1 to 10 µM

Param item = Cn1cc(Nc2nccc(-c3ccc(C(=O)NCC(F)(F)F)nc3)n2)cn1 [TDM-180756] ; retrieve measured IC50. 0.1 to 1 µM

Param item = Cn1cc(Nc2nccc(-c3ccc(NC(=O)C(F)F)cc3)n2)cn1 [TDM-180805] ; retrieve measured IC50. 0.1 to 1 µM

Param item = CCOCCS(=O)(=O)Nc1ccc(-c2ccnc(Nc3cnn(C)c3)n2)cc1 [TDM-180834] ; retrieve measured IC50. 0.1 to 1 µM

Param item = Cn1cc(Nc2nccc(-c3ccc(C(=O)NC4CC4(F)F)cc3)n2)cn1 (centres unmarked) [TDM-180758] ; retrieve measured IC50. 1 to 10 µM

Param item = Cn1cc(Nc2nccc(-c3ccc(NS(=O)(=O)CCC(F)(F)F)cc3)n2)cn1 [TDM-180850] ; retrieve measured IC50. 0.1 to 1 µM

Param item = Cn1cc(Nc2nccc(-c3ccc(NS(=O)(=O)CCCF)cc3)n2)cn1 [TDM-180896] ; retrieve measured IC50. 0.1 to 1 µM

Param item = Cn1cc(Nc2nccc(-c3ccc(NC(=O)C4CC4(F)F)c4cc[nH]c34)n2)cn1 (centres unmarked) [TDM-180929] ; retrieve measured IC50. ≥ 10 µM
